pKi values for the protein given by its sequence compiled from several publications are listed below.
Target chain: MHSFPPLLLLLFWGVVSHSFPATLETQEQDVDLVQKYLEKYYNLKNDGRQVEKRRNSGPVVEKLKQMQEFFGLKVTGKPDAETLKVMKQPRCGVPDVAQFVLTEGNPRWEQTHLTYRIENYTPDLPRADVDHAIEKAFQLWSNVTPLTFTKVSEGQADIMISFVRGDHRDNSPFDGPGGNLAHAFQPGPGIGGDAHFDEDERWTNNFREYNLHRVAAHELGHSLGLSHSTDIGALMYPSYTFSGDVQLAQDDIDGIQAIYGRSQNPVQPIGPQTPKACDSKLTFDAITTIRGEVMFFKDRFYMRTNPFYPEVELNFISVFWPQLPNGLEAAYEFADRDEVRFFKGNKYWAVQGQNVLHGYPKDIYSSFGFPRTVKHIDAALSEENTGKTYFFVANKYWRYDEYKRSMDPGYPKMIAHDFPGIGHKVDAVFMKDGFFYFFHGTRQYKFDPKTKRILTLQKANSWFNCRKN
pKi: −log10 of the molar value.
Assay endpoint: pKi

INSERT INTO measurements (compound_string, target_or_test_system, qual, observed_value) VALUES
  ('NS(=O)(=O)c1ccc(CCNC(=O)[C@H](CC2CCCCC2)NC(=O)[C@H](CCCc2ccc(Cl)cc2)CC(=O)NO)cc1', 'the protein given by its sequence', '=', 6.42),
  ('C[C@@H](NC(=O)[C@H](CCCCN)NC(=O)[C@H](CCCc1ccccc1)[C@@](C)(O)C(=O)NO)c1ccccc1', 'the protein given by its sequence', '=', 6.55),
  ('O=C(NO)[C@H]1CCCC[C@@H]1C(=O)Nc1ccc(COc2ccnc3ccccc23)cc1', 'the protein given by its sequence', '<', 5.31),
  ('CC(C)C[C@H](NC(=O)[C@H](CCc1ccccc1)CP(=O)(O)CCCCNC(=O)[C@@H]1CCCN1C(=O)c1ccccc1)C(=O)Nc1ccccc1', 'the protein given by its sequence', '≤', 5.00);

---

Target or test system: Interstitial collagenase (Homo sapiens, UniProt P03956)
Sequence (P03956 whole entry): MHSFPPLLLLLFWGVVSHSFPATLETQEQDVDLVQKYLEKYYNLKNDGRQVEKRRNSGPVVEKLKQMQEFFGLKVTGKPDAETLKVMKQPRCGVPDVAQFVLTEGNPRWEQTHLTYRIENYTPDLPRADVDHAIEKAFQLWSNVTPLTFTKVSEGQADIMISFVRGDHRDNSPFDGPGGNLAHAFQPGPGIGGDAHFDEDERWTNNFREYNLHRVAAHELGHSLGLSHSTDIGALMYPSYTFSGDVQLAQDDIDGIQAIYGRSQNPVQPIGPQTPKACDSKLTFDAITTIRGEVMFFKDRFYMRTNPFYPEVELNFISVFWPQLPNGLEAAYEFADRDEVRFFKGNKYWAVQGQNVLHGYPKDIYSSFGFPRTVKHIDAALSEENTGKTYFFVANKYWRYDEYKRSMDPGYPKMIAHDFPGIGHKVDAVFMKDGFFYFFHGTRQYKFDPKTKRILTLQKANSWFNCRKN
Assembled from different publications: Ki for Interstitial collagenase (Homo sapiens, UniProt P03956).
Friendly reminder: Ki below 400 nM is Met, at or above is Not met.

INSERT INTO measurements (compound, target_or_test_system, cat) VALUES
  ('CNC(=O)[C@@H]1CSc2ccccc2NC(=O)CO[C@H](C(=O)NO)[C@@H](CC(C)C)C(=O)N1', 'Interstitial collagenase (Homo sapiens, UniProt P03956)', 'Met'),
  ('Cc1cc(COc2ccc(NC(=O)[C@@H]3[C@@H](C(=O)NO)CCCN3CC3CC3)cc2)c2ccccc2n1', 'Interstitial collagenase (Homo sapiens, UniProt P03956)', 'Not met'),
  ('C[C@H](C(=O)NO)N1CC[C@@](C)(c2ccccc2)C1=O', 'Interstitial collagenase (Homo sapiens, UniProt P03956)', 'Met'),
  ('CNC(=O)[C@H](Cc1ccc(OC)cc1)NC(=O)[C@@H](CC(=O)NO)Cc1ccc(O)cc1', 'Interstitial collagenase (Homo sapiens, UniProt P03956)', 'Met'),
  ('CNC(=O)[C@H](Cc1ccccc1)NC(=O)[C@H](CCCCCO)CC(=O)NO', 'Interstitial collagenase (Homo sapiens, UniProt P03956)', 'Met'),
  ('CNC(=O)[C@H](CCCCN)NC(=O)[C@H](CCCc1ccccc1)[C@@](C)(O)C(=O)NO', 'Interstitial collagenase (Homo sapiens, UniProt P03956)', 'Met'),
  ('O=C(CNS(=O)(=O)c1ccc(-c2ccccc2)cc1)NO', 'Interstitial collagenase (Homo sapiens, UniProt P03956)', 'Met'),
  ('CC(C)C[C@H](NC(=O)[C@H](CCc1ccccc1)NCC(=O)O)C(=O)Nc1ccccc1', 'Interstitial collagenase (Homo sapiens, UniProt P03956)', 'Not met'),
  ('NC(=O)[C@H](Cc1ccccc1)NC(=O)Nc1nnc(S)s1', 'Interstitial collagenase (Homo sapiens, UniProt P03956)', 'Not met'),
  ('CCOc1cc(COc2ccc3c(c2)NCCN([C@H](CCCC(=O)OC)C(=O)NO)S3(=O)=O)cc(OCC)c1', 'Interstitial collagenase (Homo sapiens, UniProt P03956)', 'Not met'),
  ('COc1ccc(S(=O)(=O)N(C[C@H](O)CO)[C@H](CO)C(=O)NO)cc1', 'Interstitial collagenase (Homo sapiens, UniProt P03956)', 'Met'),
  ('Cc1cc(COc2ccc(S(=O)(=O)CC3(CC(=O)NO)CCCCN3)cc2)c2ccccc2n1 (centres undefined)', 'Interstitial collagenase (Homo sapiens, UniProt P03956)', 'Not met'),
  ('O=C(NO)[C@H]1CCC[C@@H]1C(=O)Nc1ccc(OCc2ccccc2)cc1', 'Interstitial collagenase (Homo sapiens, UniProt P03956)', 'Not met'),
  ('Cc1ccc(S(=O)(=O)N[C@@H](Cc2ccccc2)C(=O)N[C@@H](C)C(=O)Nc2n[nH]c(=S)s2)cc1', 'Interstitial collagenase (Homo sapiens, UniProt P03956)', 'Not met'),
  ('COC(=O)CCP(=O)(O)C[C@@H](CCc1ccccc1)C(=O)N[C@@H](CC(C)C)C(=O)Nc1ccccc1', 'Interstitial collagenase (Homo sapiens, UniProt P03956)', 'Not met'),
  ('Cc1cc(COc2ccc([C@]3(C)CCN([C@H](C)C(=O)NO)C3=O)cc2)c2ccccc2n1 (stereo in doubt)', 'Interstitial collagenase (Homo sapiens, UniProt P03956)', 'Not met'),
  ('COc1ccc(-c2ccc(CN3C(C(=O)NO)CCS3(=O)=O)cc2)cc1 (centres undefined)', 'Interstitial collagenase (Homo sapiens, UniProt P03956)', 'Not met'),
  ('CNC(=O)[C@@H](NC(=O)[C@H](CCCc1ccccc1)[C@@](C)(O)C(=O)NO)C(C)(C)C', 'Interstitial collagenase (Homo sapiens, UniProt P03956)', 'Met'),
  ('Cc1cc(COc2ccc(S(=O)(=O)CC3(CC(=O)NO)CCCN3C)cc2)c2ccccc2n1 (centres undefined)', 'Interstitial collagenase (Homo sapiens, UniProt P03956)', 'Not met');

---

pKi: −log10 of the molar value.
What follows is literature data on pKi for UniProtKB P03956.
Assay endpoint: pKi

INSERT INTO assay_data (molecule, assay_endpoint, qual, observed_value) VALUES
  ('CC(=O)NCCCCCC(=O)N1C[C@H](NS(=O)(=O)c2ccc(Oc3ccccc3)cc2)[C@@H](S)C1 (racemic)', 'pKi', '<', 5.22),
  ('O=C(CN(CCO)S(=O)(=O)c1ccc(-c2ccccc2)cc1)NO', 'pKi', '=', 7.17),
  ('C#CN1CCC(C(=O)NO)C(CS(=O)(=O)c2ccc(OCc3cc(C)nc4ccccc34)cc2)C1 (stereo not drawn)', 'pKi', '<', 5.31),
  ('CC(C)C[C@H](NC(=O)C(CCc1ccccc1)CP(=O)(O)[C@H](C)NC(=O)OCc1ccccc1)C(=O)Nc1ccccc1 (stereo partly drawn)', 'pKi', '=', 5.12),
  ('CC(C)Cc1ccc(CC[C@H](N[C@H](C)C(=O)O)C(=O)N[C@@H](CC(C)C)C(=O)Nc2ccccc2)cc1', 'pKi', '<', 5.00),
  ('CC(C)Cc1ccc([C@]2(C)CCN([C@H](C)C(=O)NO)C2=O)cc1', 'pKi', '=', 5.40),
  ('CC(C)(C)[C@H](NC(=O)[C@H](CCCCOc1ccc(Cl)cc1)CC(=O)NO)C(=O)NCCN1CCCC1', 'pKi', '=', 7.10),
  ('CC(C)C[C@H](CP(=O)(O)CSc1ccc2ccccc2n1)C(=O)N[C@H]1Cc2cn(c3ccccc23)CCCCCCNC1=O', 'pKi', '=', 8.30);

---

What follows is literature data on Ki for Interstitial collagenase (Homo sapiens).
Assay endpoint: Ki (µM)

INSERT INTO measurements (compound, qual, observed_value) VALUES
  ('O=S(=O)(N[C@H]1CNC[C@@H]1S)c1ccc(Oc2ccccc2)cc1', '=', 50),
  ('Cc1ccc(CCC[C@H](CC(=O)O)C(=O)N[C@@H](CC2CCCCC2)C(=O)NCCCCN2CCOCC2)cc1', '=', 55),
  ('CC(C)C[C@@H](C(=O)N[C@H](C(N)=O)C(C)(C)C)[C@H](C)N(O)C=O', '=', 0.181),
  ('CC(C)C[C@H](CC(=O)NO)C(=O)N[C@@H]1c2ccccc2C[C@@H]1O', '=', 1.09),
  ('Cc1cc(COc2ccc(S(=O)(=O)CC3(CC(=O)NO)CCCN(C)C3)cc2)c2ccccc2n1 (stereo not given)', '>', 4.9);
